System: Rattus norvegicus
assay.overview: Percentage of non disrupted rats that selected the drug lever, when given at a dose of 0.5 mg/kg
Format: functional
Could you please report measured SDL for the items listed next?
Answer format: numeric, % implied, no suffix.

Param item = COc1cc(C[C@H](C)N)ccc1C ; retrieve measured SDL.
33

Query: SDL; subject: COc1cc(CC(C)N)ccc1C (centres undefined)
50

Returns the measured SDL for the input molecule. Input: COc1cc(C[C@@H](C)N)ccc1C
38

Which measured SDL value corresponds to COc1ccc2c(c1C)CC(N)C2 (centres undefined) ?
25

These measurements were taken from ChEMBL document CHEMBL1125697.
